assay: Intrinsic clearance in human liver microsomes preincubated for 5 mins by LC/MS/MS analysis; type: ADME; conditions: liver microsomes
REPORTED METRIC: microsomal CLint (µL/min/mg)
Please respond with the number in µL/min/mg and leave the unit unwritten.

Recorded microsomal CLint, per entry:
>>> endpoint_value("C=CCCCCC[C@H](NC(=O)OC(C)(C)C)C(=O)N[C@H](C(=O)Nc1ccccc1C(=O)NS(=O)(=O)CCCC=C)c1ccc(Oc2cc(OC)nc(-c3ccccc3)n2)cc1")
60
>>> endpoint_value("C=CCCCS(=O)(=O)NC(=O)c1ccccc1NC(=O)[C@@H](NC(=O)[C@@H](NC(=O)OC(C)(C)C)C(C)(C)C)c1ccc(Oc2cc(OC)nc(-c3ccccc3)n2)cc1")
64
>>> endpoint_value("C=CCCCS(=O)(=O)NC(=O)c1ccccc1NC(=O)[C@@H](NC(=O)[C@@H](NC(=O)OC(C)(C)C)C(C)(C)C)c1ccc(Oc2cc(OC)nc(-c3ccccc3)n2)c(C=C)c1")
17
>>> endpoint_value("C=CCCCS(=O)(=O)NC(=O)c1ccccc1NC(=O)[C@@H](NC(=O)OC(C)(C)C)c1ccc(Oc2cc(OC)nc(-c3ccccc3)n2)cc1")
86

// next entry
Sure, the documented microsomal CLint for COc1cc(Oc2ccc(C3NC(=O)[C@H](NC(=O)OC(C)(C)C)CCCCC/C=C/CCCS(=O)(=O)NC(=O)c4ccccc4NC3=O)cc2)nc(-c2ccccc2)n1 (stereo in doubt; 29L) is 87

---

target: Hepatitis C virus serine protease, NS3/NS4A (Hepatitis C virus, UniProt D2K2A8+A3EZI9); assay: Inhibition of HCV genotype 1a NS3/4A protease using Ac-DED(Edans)EEAbu-psi[COO]ASK(Dabcyl)-NH2 as substrate by FRET assay; set-up: species or system Hepatitis C virus subtype 1a
Sequence (D2K2A8 whole entry): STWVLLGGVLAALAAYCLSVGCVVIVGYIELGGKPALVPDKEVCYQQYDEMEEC
Sequence (A3EZI9 whole entry): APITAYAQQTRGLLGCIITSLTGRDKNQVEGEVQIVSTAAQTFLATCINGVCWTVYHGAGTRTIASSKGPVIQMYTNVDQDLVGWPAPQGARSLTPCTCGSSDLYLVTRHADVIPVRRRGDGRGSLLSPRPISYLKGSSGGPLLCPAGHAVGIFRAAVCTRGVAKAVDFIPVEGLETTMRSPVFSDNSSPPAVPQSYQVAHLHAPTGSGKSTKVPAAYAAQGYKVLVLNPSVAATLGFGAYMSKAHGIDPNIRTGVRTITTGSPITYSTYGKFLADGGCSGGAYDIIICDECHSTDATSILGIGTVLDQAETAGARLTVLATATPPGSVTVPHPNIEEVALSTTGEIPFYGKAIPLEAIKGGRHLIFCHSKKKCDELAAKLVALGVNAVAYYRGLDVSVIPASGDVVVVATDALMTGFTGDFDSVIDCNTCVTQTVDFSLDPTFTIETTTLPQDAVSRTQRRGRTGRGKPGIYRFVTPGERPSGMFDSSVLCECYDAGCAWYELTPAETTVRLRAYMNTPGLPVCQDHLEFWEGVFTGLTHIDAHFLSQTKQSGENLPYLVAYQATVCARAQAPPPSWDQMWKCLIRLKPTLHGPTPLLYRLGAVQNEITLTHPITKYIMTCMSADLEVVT
REPORTED METRIC: Ki (nM)
Please respond with the number in nM and leave the unit unwritten.

Sure, the documented Ki for COc1cc(Oc2ccc(C3NC(=O)[C@H](NC(=O)OC(C)(C)C)CCCCCCCCCCS(=O)(=O)NC(=O)c4ccccc4NC3=O)cc2)nc(-c2ccccc2)n1 (stereo in doubt; 31L) is 110

---

assay: Half life in human liver microsomes preincubated for 5 mins by LC/MS/MS analysis; format: ADME; conditions: liver microsomes
REPORTED METRIC: half-life (min)
Please respond with the number in min and leave the unit unwritten.

>>> endpoint_value("C=CCCCS(=O)(=O)NC(=O)c1ccccc1NC(=O)[C@@H](NC(=O)[C@@H](NC(=O)OC(C)(C)C)C(C)(C)C)c1ccc(Oc2cc(OC)nc(-c3ccccc3)n2)cc1")
22
>>> endpoint_value("C=CCCCCC[C@H](NC(=O)OC(C)(C)C)C(=O)N[C@H](C(=O)Nc1ccccc1C(=O)NS(=O)(=O)CCCC=C)c1ccc(Oc2cc(OC)nc(-c3ccccc3)n2)cc1")
23
>>> endpoint_value("C=CCCCS(=O)(=O)NC(=O)c1ccccc1NC(=O)[C@@H](NC(=O)OC(C)(C)C)c1ccc(Oc2cc(OC)nc(-c3ccccc3)n2)cc1")
16

Sure, the documented half-life for C=CCCCS(=O)(=O)NC(=O)c1ccccc1NC(=O)[C@@H](NC(=O)[C@@H](NC(=O)OC(C)(C)C)C(C)(C)C)c1ccc(Oc2cc(OC)nc(-c3ccccc3)n2)c(C=C)c1 is 83

Sure, the documented half-life for COc1cc(Oc2ccc(C3NC(=O)[C@H](NC(=O)OC(C)(C)C)CCCCC/C=C/CCCS(=O)(=O)NC(=O)c4ccccc4NC3=O)cc2)nc(-c2ccccc2)n1 (stereo in doubt; 29L) is 16
